All figures here come from patent US9938262B2.

Reported pEC50 values for the following molecules.
# Target Or Test System: FSHR (Homo sapiens)
# Construct: expressed in transfected cells; host or cells: CHO (Cho-FSHR-LUC-1-1-43)
# Assay Remarks: EC50 of cyclic AMP production in CHO FSHR cells + EC20 FSH (Assay A)
# Format: cell-based
# Setup Conditions: CHO FSHR cells + EC20 FSH; Table 1; read-out: Assay A EC50 of cyclic AMP production
pEC50: −log10 of the molar value.
Quantity Measured: pEC50

[
  {
    "Molecule": "CC(=O)NCCCNC(=O)c1ccc(N2CCN(c3ccccc3C)CC2)c(NC(=O)c2ccc(C)o2)c1",
    "Quantity Measured": "pEC50",
    "Readout Value": "6.00 to 7.00"
  },
  {
    "Molecule": "Cc1ccccc1N1CCN(c2ccc(C(=O)NCCCN3CCCC3=O)cc2NC(=O)c2ccccc2F)CC1",
    "Quantity Measured": "pEC50",
    "Readout Value": "6.00 to 7.00"
  },
  {
    "Molecule": "Cc1ccccc1N1CCN(c2ccc(C(=O)NCCCN3CCCC3=O)cc2NC(=O)c2coc(Cl)n2)CC1",
    "Quantity Measured": "pEC50",
    "Readout Value": "6.00 to 7.00"
  },
  {
    "Molecule": "COc1ccccc1C(=O)Nc1cc(C(=O)NCCCN2CCCC2=O)ccc1N1CCN(c2ccccc2C)CC1",
    "Quantity Measured": "pEC50",
    "Readout Value": "5.00 to 6.00"
  },
  {
    "Molecule": "COc1ccc(CNC(=O)c2ccc(N3CCN(c4ccccc4C)CC3)c(NC(=O)c3ccco3)c2)cc1OC",
    "Quantity Measured": "pEC50",
    "Readout Value": "6.00 to 7.00"
  },
  {
    "Molecule": "Cc1ccc(C(=O)Nc2cc(C(=O)NCCCN3CCCC3=O)ccc2N2CCC(c3ccccc3C)CC2)o1",
    "Quantity Measured": "pEC50",
    "Readout Value": "< 5.00"
  },
  {
    "Molecule": "Cc1ccccc1N1CCN(c2ccc(C(=O)NCCCN3CCCC3=O)cc2NC(=O)c2ncoc2C)CC1",
    "Quantity Measured": "pEC50",
    "Readout Value": "6.00 to 7.00"
  }
]

----------
# Target Or Test System: FSHR (Homo sapiens)
# Construct: expressed in transfected cells; host or cells: CHO (Cho-FSHR-LUC-1-1-43)
# Assay Remarks: EC50 of cyclic AMP production in CHO FSHR cells + EC20 FSH (Assay A)
# Assay type: cell-based
# Setup Conditions: CHO FSHR cells + EC20 FSH; Table 1; read-out: Assay A EC50 of cyclic AMP production
Quantity Measured: EC50

[
  {
    "Molecule": "Cc1nc(C(F)(F)F)c(C(=O)Nc2cc(C(=O)NCCCN3CCCC3=O)ccc2N2CCN(c3ccccc3C)CC2)s1",
    "Readout Value": "1000 to 10000 nM"
  },
  {
    "Molecule": "CCNC(=O)N1CCC[C@@H](NC(=O)c2ccc(N3CCN(c4ccccc4C)CC3)c(NC(=O)c3ccco3)c2)C1",
    "Readout Value": "1000 to 10000 nM"
  },
  {
    "Molecule": "Cc1ccccc1N1CCN(c2ccc(C(=O)NCCCc3ccncc3)cc2NC(=O)c2ccco2)CC1",
    "Readout Value": "100 to 1000 nM"
  },
  {
    "Molecule": "Cc1ccccc1N1CCN(c2ccc(C(=O)NCCCn3ccnc3)cc2NC(=O)c2ccco2)CC1",
    "Readout Value": "100 to 1000 nM"
  },
  {
    "Molecule": "CCCc1cc(C(=O)Nc2cc(C(=O)NCCCN3CCCC3=O)ccc2N2CCN(c3ccccc3C)CC2)co1",
    "Readout Value": "1000 to 10000 nM"
  },
  {
    "Molecule": "CC(=O)N1CCC(NC(=O)c2ccc(N3CCN(c4ccccc4C)CC3)c(NC(=O)c3ccco3)c2)CC1",
    "Readout Value": "1000 to 10000 nM"
  },
  {
    "Molecule": "Cc1ccccc1N1CCN(c2ccc(C(=O)NCCCN)cc2NC(=O)c2ccco2)CC1",
    "Readout Value": "100 to 1000 nM"
  }
]

----------
# reported activation at 5 µM; entries follow
# Target Or Test System: FSHR (Homo sapiens, UniProt P23945)
# Construct: expressed in transfected cells; host or cells: CHO (Cho-FSHR-LUC-1-1-43)
# Sequence (P23945 18-695): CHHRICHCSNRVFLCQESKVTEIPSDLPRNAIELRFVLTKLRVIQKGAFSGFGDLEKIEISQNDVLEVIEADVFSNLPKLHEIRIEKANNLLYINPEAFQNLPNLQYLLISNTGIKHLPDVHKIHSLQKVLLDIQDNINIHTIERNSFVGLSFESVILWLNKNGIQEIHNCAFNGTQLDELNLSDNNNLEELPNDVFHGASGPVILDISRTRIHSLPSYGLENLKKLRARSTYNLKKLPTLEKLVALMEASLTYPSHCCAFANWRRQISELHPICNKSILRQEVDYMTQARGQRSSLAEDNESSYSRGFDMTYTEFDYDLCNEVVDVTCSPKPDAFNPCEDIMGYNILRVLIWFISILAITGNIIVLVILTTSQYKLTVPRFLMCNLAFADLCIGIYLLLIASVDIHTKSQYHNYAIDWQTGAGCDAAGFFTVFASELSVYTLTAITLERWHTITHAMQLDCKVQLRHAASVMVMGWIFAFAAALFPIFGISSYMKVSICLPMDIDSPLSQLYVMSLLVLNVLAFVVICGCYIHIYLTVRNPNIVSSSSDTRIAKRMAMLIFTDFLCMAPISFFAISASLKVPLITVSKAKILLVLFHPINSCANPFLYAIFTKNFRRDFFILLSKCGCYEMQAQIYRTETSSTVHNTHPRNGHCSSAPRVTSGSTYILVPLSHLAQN
# Sequence (P01215 25-116 partner): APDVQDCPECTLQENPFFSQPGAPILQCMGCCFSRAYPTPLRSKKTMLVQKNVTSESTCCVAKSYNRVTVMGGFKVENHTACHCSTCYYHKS
# Sequence (P01225 19-129 partner): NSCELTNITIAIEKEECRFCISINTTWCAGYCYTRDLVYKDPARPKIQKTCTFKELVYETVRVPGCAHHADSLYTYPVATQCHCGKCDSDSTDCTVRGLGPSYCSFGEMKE
# Assay Remarks: EC50 of cyclic AMP production in CHO FSHR cells + EC20 FSH (Assay A)
# Assay type: cell-based
# Setup Conditions: 1 h; 5 μM; effect relative to maximum response of the FSH standard; Table 1
Quantity Measured: activation at 5 µM (%)

[
  {
    "Compound": "COc1ccc(CNC(=O)c2ccc(N3CCN(c4ccccc4C)CC3)c(NC(=O)c3ccco3)c2)cc1 [Compound 122]",
    "Quantity Measured": "activation at 5 µM",
    "Readout Value": 24
  },
  {
    "Compound": "Cc1ccccc1N1CCN(c2ccc(C(=O)NCCc3c[nH]c4ccccc34)cc2NC(=O)c2ccco2)CC1 [Compound 10]",
    "Quantity Measured": "activation at 5 µM",
    "Readout Value": 39
  },
  {
    "Compound": "COc1ccc(C(=O)Nc2cc(C(=O)NCCCN3CCCC3=O)ccc2N2CCN(c3ccccc3C)CC2)cc1OC [Compound 127]",
    "Quantity Measured": "activation at 5 µM",
    "Readout Value": 33
  },
  {
    "Compound": "Cc1ccccc1N1CCN(c2ccc(C(=O)NCCN(C)C(=O)OC(C)(C)C)cc2NC(=O)c2ccco2)CC1 [Compound 64]",
    "Quantity Measured": "activation at 5 µM",
    "Readout Value": 72
  },
  {
    "Compound": "Cc1ccccc1N1CCN(c2ccc(C(=O)N[C@@H]3CCCN(C(=O)OC(C)(C)C)C3)cc2NC(=O)c2ccco2)CC1 [Compound 21]",
    "Quantity Measured": "activation at 5 µM",
    "Readout Value": 22
  },
  {
    "Compound": "Cc1ccccc1N1CCN(c2ccc(C(=O)NCCCN3CCCC3=O)cc2NC(=O)c2ccc3ccccc3c2)CC1 [Compound 43]",
    "Quantity Measured": "activation at 5 µM",
    "Readout Value": 44
  },
  {
    "Compound": "CC(=O)N1CCN(C(=O)c2ccc(N3CCN(c4ccccc4C)CC3)c(NC(=O)c3ccco3)c2)CC1 [Compound 23]",
    "Quantity Measured": "activation at 5 µM",
    "Readout Value": 4
  },
  {
    "Compound": "Cc1ccccc1N1CCN(c2ccc(C(=O)NCCCN3CCCC3=O)cc2NC(=O)C2CCN(C)CC2)CC1 [Compound 83]",
    "Quantity Measured": "activation at 5 µM",
    "Readout Value": 8
  },
  {
    "Compound": "Cc1ccccc1N1CCN(c2ccc(C(=O)NCCCn3ccc4ccccc43)cc2NC(=O)c2ccco2)CC1 [Compound 149]",
    "Quantity Measured": "activation at 5 µM",
    "Readout Value": 24
  },
  {
    "Compound": "Cc1ccccc1N1CCN(c2ccc(C(=O)NCCCN3CCCC3=O)cc2NC(=O)c2cccc(C(N)=O)c2)CC1 [Compound 163]",
    "Quantity Measured": "activation at 5 µM",
    "Readout Value": 8
  },
  {
    "Compound": "Cc1ccccc1N1CCN(c2ccc(C(=O)N3CCC4(CCOC4)CC3)cc2NC(=O)c2ccco2)CC1 [Compound 224]",
    "Quantity Measured": "activation at 5 µM",
    "Readout Value": 10
  },
  {
    "Compound": "Cc1ccccc1N1CCN(c2ccc(C(=O)NCCCN3CCCC3=O)cc2NC(=O)c2cncs2)CC1 [Compound 99]",
    "Quantity Measured": "activation at 5 µM",
    "Readout Value": 35
  },
  {
    "Compound": "C[C@H]1CN(c2ccc(C(=O)NCCCN3CCCC3=O)cc2NC(=O)c2coc(C3CC3)n2)CCN1Cc1ccccc1C(F)(F)F [Compound 257]",
    "Quantity Measured": "activation at 5 µM",
    "Readout Value": 21
  },
  {
    "Compound": "COc1ccccc1CNC(=O)c1ccc(N2CCN(c3ccccc3C)CC2)c(NC(=O)c2ccco2)c1 [Compound 124]",
    "Quantity Measured": "activation at 5 µM",
    "Readout Value": 82
  },
  {
    "Compound": "Cc1ccccc1N1CCN(c2ccc(C(=O)NCCCN3CCCC3=O)cc2NC(=O)c2cccc3nccnc23)CC1 [Compound 115]",
    "Quantity Measured": "activation at 5 µM",
    "Readout Value": 39
  }
]
